Quick list: Maximum MFI per entry.
target: T1, cynomolgus monkey B7-H7 on the cell surface (cynomolgus monkey); experiment: flow cytometry, HEK-293/cyno B7-H7 cells
T1 construct: whole, on cells; also called cyno B7-H7

{"columns": ["binder", "outputUnit", "Maximum MFI"],
 "data": [
  ["PR003262 (antibody, human IgG1, kappa, V domains shown, Human IgG1; also called 77D5A4) VH: QVQLVESGGGVVQPGRSLRLSCAASGFTFSRYGIHWVRQAPGKGLEWVAVIWYNGRNKYYVDSVKGRFTISRDNSKNTLYLQMNSLRAEDTAVYYCARDGGYSYGPFDYWGQGTLVTVSS VL: EIVMTQSPATLSVSPGERATLSCRASQSFSNNLAWYQQKPGQAPRLLIYGASTRATGIPARFSGSGSGTEFTLTISSLQSEDFAVYYCHQYNIWPLTFGGGTKVEIKR", "MFI", 419000],
  ["PR003252 (antibody, human IgG1, kappa, V domains shown, Human IgG1; also called 53C12D4) VH: QVQLVESGGGVVQPGRSLRLSCAASGFTFSNYAMHWVRQVPGKGLEWVALIWYDGSEKYYADSVKGRFTISRDDSKNTLFLQMSSLRAEDTAVYSCVREYSSGWGYFDYWGQGTQVTVSS VL: DIQMTQSPSTLSASVGDRVTITCRASQSISSWLAWYQQKPGKAPKLLIYKASSLKSGVPSRFSGSGSGTEFTLTISSLQPDDFATYYCLQYNSYYTFGQGTKLEIKR", "MFI", 414000],
  ["PR003260 (antibody, human IgG1, kappa, V domains shown, Human IgG1; also called 70F3B1) VH: QVQLVESGGGVVQPGRSLRLPCAASGFTFSRYGMHWVRQAPGKGLEWVADIWYDGSKKYYADSVKGRFTISRDNSKNTLYLQMNSLRAEDTAVYFCTRDGGYSYGPFDYWGQGTLVTVSS VL: EIVMTQSPATLSVSPGERATLSCRASQSVSSNLAWYQQKPGQAPRLLIYYASTRAPGIPARFSGSESGTEFTLTISSLQSEDFAVYYCQQYNIWPYTFGQGTKLEIKR", "MFI", 447000],
  ["PR003263 (antibody, human IgG1, kappa, V domains shown, Human IgG1; also called 77E6C4) VH: QVQLVESGGGVVQPGRSLRLSCAASGFTFSYYGLNWVRQAPGKGLEWVAVIWFDGTNKYYADSVKGRFTISRDDSKNTLYLQMNSLRAEDTAVYYCARGYGSGSYYNYVMDAWGQGASVTVSS VL: EIVMTQSPATLSVSPGERATLSCRASQSVSSNLAWYQQKPGQAPRLLIYGASTGATGIPARFSGSGSGTDFTLTISSLQSEDFAVYYCQQYYKWPLTFGGGTKVEIKR", "MFI", 410000],
  ["PR003265 (antibody, human IgG1, kappa, V domains shown, Human IgG1; also called 78G8B3) VH: QVQLVESGGGVVQPGRSLRLSCAASGFTFSTYGLHWVRQAPGKGLEWVAVIWYDESNEYYADSVKGRFTISRDNSKNTLYLQMNSLRAEDTALYYCARLAHDYGGTYFDYWGQGTLVTVSS VL: EIVMTQSPAILSVSPGERATLSCRASQSISYNLAWYQQKPGQAPRLLIYGASIRATGIPARFSGSGSGTDFTLTISSLQSEDFAVYYCQQYNNWPPWTFGQGTKVEIKR", "MFI", 451000]
]}
